- Test system: phenylquinone writhing in mice
- experiment-notes: Phenylquinone Writhing Test (analgesic activity)
- Format: in vivo, mouse (female white mice)
- run-parameters: mouse, oral, phenylquinone i.p. 6 minutes before 10 minutes observation; read-out: Phenylquinone Writhing (PQW) ED50 (effective analgesic dose for 50% of the mice)
Reported values of ED50 for individual entries
Numeric answer only, unit mg/kg assumed.

Take a look at these entries with their results.
# molecule, system-under-test, measured
data = [
    ("CCCCC1C(=O)N(c2ccccc2)N(c2ccccc2)C1=O [Phenylbutazone, reference compound]", "phenylquinone writhing in mice", 80),
    ("COc1ccc(-c2cc(C)sc2-c2ccc(OC)cc2)cc1", "phenylquinone writhing in mice", 78),
    ("CC(C)Cc1ccc(C(C)C(=O)O)cc1 (stereo not drawn) [Ibuprofen, reference compound]", "phenylquinone writhing in mice", 10),
    ("COc1ccc(-c2cc(C3CCCCC3)sc2-c2ccc(OC)cc2)cc1", "phenylquinone writhing in mice", 47),
    ("COc1ccc(-c2cc(C(C)(C)C)sc2-c2ccc(OC)cc2)cc1", "phenylquinone writhing in mice", 1.4),
]

The value of ED50 measured for the molecule CCC(C)c1cc(-c2ccc(OC)cc2)c(-c2ccc(OC)cc2)s1 (stereo not drawn) turned out to be 5.5
